Recorded measurements of IP, one per entry
- Species: Rattus norvegicus
- protocol-notes: Open TG-GATES - Regimen: Daily Repeat
- Type: toxicity, organism-based, Sprague-Dawley
- Design: regimen Daily Repeat, gender Male, age 6 weeks
- test-settings: in vivo, po, 1000 mg/kg, […], tissue Plasma, route gavage, dose level High, time 28 day
Report as a plain number; the unit mg/dL is understood.

Field: example entries. Status: answers known.
[
  {
    "compound": "O=C(O)c1ccccc1Nc1ccccc1 [FENAMIC ACID]",
    "experimental-endpoint": "IP",
    "number": 5.5
  },
  {
    "compound": "CCCCNC(=O)NS(=O)(=O)c1ccc(C)cc1 [TOLBUTAMIDE]",
    "experimental-endpoint": "IP",
    "number": 6.5
  },
  {
    "compound": "CC(S)C(=O)NCC(=O)O (centres undefined) [TIOPRONIN]",
    "experimental-endpoint": "IP",
    "number": 7.5
  }
]

Form field IP, entry CC(=O)[C@@]1(O)CC[C@H]2[C@@H]3C=C(Cl)C4=CC(=O)CC[C@]4(C)[C@H]3CC[C@@]21C [CHLORMADINONE] : 6.1
